These measurements were taken from the supplement of paper PMC6555819.

- Test system: PPARg DBDmut IVT, anti-PPARg (DBD mutation: PPARg1 K132A/R137A, NR concentration 270 nM)
- experimentNotes: PBM binding z-score (relative to random genomic background probes); higher = stronger binding; sequences stand for … in GC…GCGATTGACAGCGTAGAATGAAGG
Assign classes using reported PBM binding z-score values and the ranges low bracket: < -0.8; middle bracket: ≥ -0.8 and < 0.6; high bracket: ≥ 0.6, please.

# example entries with known answers
sequence | classLabel
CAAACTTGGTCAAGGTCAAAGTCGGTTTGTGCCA | high bracket
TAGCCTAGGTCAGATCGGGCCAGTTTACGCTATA | middle bracket
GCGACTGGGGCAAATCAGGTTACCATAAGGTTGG | low bracket
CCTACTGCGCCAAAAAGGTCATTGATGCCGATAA | middle bracket
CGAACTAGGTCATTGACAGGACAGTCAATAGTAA | high bracket
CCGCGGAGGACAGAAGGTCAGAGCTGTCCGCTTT | low bracket
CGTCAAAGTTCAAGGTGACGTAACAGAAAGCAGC | middle bracket

Note: attention shifts to another entry.
Query string: Exam item: assign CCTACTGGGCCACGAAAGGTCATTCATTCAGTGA to the correct category.
Result string: middle bracket

---

The entries below come with measured PBM binding z-score values attached.
- Test system: PPARg:RXRa 30nM:10nM, anti-RXR (NR concentration 30 nM, RXRa partner concentration 10 nM)
- experimentNotes: PBM binding z-score (relative to random genomic background probes); higher = stronger binding; sequences stand for … in GC…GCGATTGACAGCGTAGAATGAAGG
Please state the value as a number alone, without comment.

The cases that follow already have their PBM binding z-score on record.
sequence | experimentalEndpoint | quantitativeReadout
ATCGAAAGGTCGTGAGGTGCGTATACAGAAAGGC | PBM binding z-score | 1.13
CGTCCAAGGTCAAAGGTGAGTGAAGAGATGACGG | PBM binding z-score | 5.88
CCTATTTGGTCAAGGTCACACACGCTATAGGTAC | PBM binding z-score | 1.55
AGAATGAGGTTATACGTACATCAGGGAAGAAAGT | PBM binding z-score | 0.777
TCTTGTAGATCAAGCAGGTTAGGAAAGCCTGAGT | PBM binding z-score | 2.29
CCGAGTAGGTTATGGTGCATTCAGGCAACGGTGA | PBM binding z-score | 1.15
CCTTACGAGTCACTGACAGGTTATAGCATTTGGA | PBM binding z-score | 0.331
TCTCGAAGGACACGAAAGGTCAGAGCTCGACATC | PBM binding z-score | 3.42
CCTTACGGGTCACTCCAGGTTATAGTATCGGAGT | PBM binding z-score | 1.33
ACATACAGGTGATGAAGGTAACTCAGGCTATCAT | PBM binding z-score | 0.477

Query string: For the sequence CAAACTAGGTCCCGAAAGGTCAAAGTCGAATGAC , what PBM binding z-score is on record?
Result string: 2.11

Query string: What value of PBM binding z-score has been recorded for this entry: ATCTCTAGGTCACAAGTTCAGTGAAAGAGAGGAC
Result string: 3.16

Query string: I have this sequence here, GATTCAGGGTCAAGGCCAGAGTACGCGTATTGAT , and I need its recorded PBM binding z-score.
Result string: 3.1

Query string: Fill in: PBM binding z-score of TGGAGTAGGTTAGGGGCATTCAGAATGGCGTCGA is ___
Result string: 1.46

Query string: What value of PBM binding z-score has been reported for the following sequence? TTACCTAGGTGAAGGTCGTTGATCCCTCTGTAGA
Result string: 0.624

Query string: Quick one: PBM binding z-score of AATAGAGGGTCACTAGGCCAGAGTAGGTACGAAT ?
Result string: 2.33

Query string: Given the sequence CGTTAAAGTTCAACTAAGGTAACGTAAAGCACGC , what is its reported PBM binding z-score?
Result string: 1.66
